- Test system: Wolbachia pipientis
- Test Description: Anti-Wolbachia Cell-Based Screen
- Assay type: functional
- Set-up: scale not given: in the data most compounds retested in dose-response had high values
- Condition Notes: 5 µM
Screen size: about 48,000 compounds; about 13,000 (27%) showed an effect of 50% or more. The list shows a part of the results.
Reported Metric: Percent Effect (%)
Answer format: numeric, % implied, no suffix.

Look over these answered cases.
Cc1cc(C)n(CCNCc2cc(-c3ccc(Cl)cc3)c[nH]c2=O)n1    101
CC(C)NC(=O)CSc1nc2c(cnn2CCO)c(=O)[nH]1    147.9
CCSCCNc1nc(-c2ccccn2)nc2c1c(C)nn2C    -9.72
CC(=O)c1cc2ncc(C(=O)NC3CC3)cc2[nH]1    127.3

What Percent Effect value was documented for this compound, `CC(=O)CSc1nc2c(cnn2CCO)c(=O)[nH]1` ?
136.9

What Percent Effect value was documented for this compound, `Cc1cc(C)n(CC(=O)N2CCC(NS(=O)(=O)c3ccccc3)CC2)n1` ?
-8.172

What Percent Effect value was documented for this compound, `CC(C)CCC(=O)NCc1ccc(N2CCCCC2)cc1` ?
9.507

What Percent Effect value was documented for this compound, `CN(CC(=O)NCC(=O)Nc1ccc(F)cc1)Cc1cccs1` ?
82.61

What Percent Effect value was documented for this compound, `CC(=O)c1cc2ncc(C(=O)NC3CCCCC3)cc2[nH]1` ?
114.6

What Percent Effect value was documented for this compound, `CCN(CC)C(=O)CSc1nc2c(cnn2CCO)c(=O)[nH]1` ?
123.9

====

- Tested on: Wolbachia pipientis
- Test Description: Anti-Wolbachia Cell-Based Screen
- Assay type: functional
- Design: scale not given: in the data most compounds retested in dose-response had high values
- Condition Notes: 5 µM
The campaign covered roughly 48,000 compounds. About 13,000 (27%) showed an effect of 50% or more. The list shows a part of the results.
Reported Metric: Percent Effect (%)
Answer format: numeric, % implied, no suffix.

Look over these answered cases.
CC(O)CN1CCC(CNCc2ccccc2Br)CC1 (stereo not given)    -8.503
COCCN(C)c1nc(-c2ccncc2)nc2c1CCN(C(C)=O)C2    5.956
CCC(C(=O)NCC1CCN(c2cnn(C)c(=O)c2)CC1)n1cccn1 (stereo not given)    4.446

What Percent Effect value was documented for this molecule, `COc1ccc(C2(C(=O)N3C[C@@H](C(=O)O)[C@H](C(C)C)C3)CC2)cc1` ?
6.312

What Percent Effect value was documented for this molecule, `CC1(C)CNC(=O)c2nc(-c3ccccc3)[nH]c2C1` ?
3.068

What Percent Effect value was documented for this molecule, `Cc1cc2nc(CO[C@H]3CN(C)C[C@H]3F)[nH]c2cc1C` ?
-14.61

What Percent Effect value was documented for this molecule, `CC(=O)Nc1nc(C(=O)NCCOc2ccccc2F)cs1` ?
-9.068

What Percent Effect value was documented for this molecule, `CNC(=O)CCN(C)c1nc(-c2ccncc2)nc2c1CCNC2` ?
97.6

What Percent Effect value was documented for this molecule, `Cn1cc(NC(=O)Cc2cccs2)c(=O)n(C)c1=O` ?
-7.177

What Percent Effect value was documented for this molecule, `CNC(=O)CN(C)c1nc(-c2ccncc2)nc2c1CCN(C(C)=O)C2` ?
-5.976

What Percent Effect value was documented for this molecule, CCN(CC)S(=O)(=O)N1CCCC1C(=O)N1CCSCC1 (stereo not given) ?
22.8

What Percent Effect value was documented for this molecule, Cc1nn(CCO)cc1CN1CCCC1c1nc2c(C)cccc2[nH]1 (stereo not given) ?
-6.904

What Percent Effect value was documented for this molecule, O=C1N(CCCc2ccccc2)CCCC1(O)CNCC1CCCCC1 (stereo not given) ?
25.76

====

Catalogue of molecules with associated Percent Effect
- Tested on: Wolbachia pipientis
- Test Description: Anti-Wolbachia Cell-Based Screen
- Assay type: functional
- Parameters: scale not given: in the data most compounds retested in dose-response had high values
- Condition Notes: 5 µM
Hit rate of the full screen: of about 48,000 compounds, about 13,000 (27%) showed an effect of 50% or more. Some of the results follow.
Answer format: numeric, % implied, no suffix.

CCCc1noc(CNc2cc(C[S+](C)[O-])ccc2Cl)n1 (stereo unspecified)    -7.446
COCCN1C(=O)CO[C@H]2CN(Cc3ccccc3OC)C[C@H]21    -3.474
CN(C)Cc1cnc(C2CCN(C(=O)c3cccc(F)c3)C2)[nH]1 (stereo unspecified)    98.09
COCCN1C(=O)CO[C@H]2CN(Cc3cccc(OC)c3F)C[C@@H]21    149.6
COCCN1C(=O)CO[C@H]2CN(Cc3ccccc3Cl)C[C@@H]21    128.8

What Percent Effect value was documented for this molecule, `COCCn1ccc(NCc2sccc2C)n1` ?
-10.57

What Percent Effect value was documented for this molecule, `COCCn1ccc(NCc2cc3cc(F)ccc3o2)n1` ?
97.47

====

- Tested on: Wolbachia pipientis
- Test Description: Anti-Wolbachia Cell-Based Screen
- Type: functional
- Parameters: scale not given: in the data most compounds retested in dose-response had high values
- Condition Notes: 5 µM
In all, about 48,000 compounds went through this assay and about 13,000 (27%) showed an effect of 50% or more. This is one part of the list.
Reported Metric: Percent Effect (%)
Answer format: numeric, % implied, no suffix.

Look over these answered cases.
COCCCNC(=O)c1cn(C(C)C)cc2c(=O)[nH]nc1-2    104.5
Cc1ccsc1CN(Cc1cccnc1)C1CC(C)(C)NC(C)(C)C1.O=C(O)CC(O)(CC(=O)O)C(=O)O    106.7
O=C(NCCCn1ccnc1)c1csc2c1CCCC2    4.867
COc1cccc(-c2n[nH]cc2C(=O)NC(C)CC(=O)O)c1 (stereo not drawn)    -19.78
CC(C)N(C)CCCNC(=O)c1cnn(C(C)C)c1C(F)(F)F    7.835
CS(=O)(=O)NC1CCCN(C(=O)NCc2cccnc2)C1 (stereo not drawn)    -6.706

What Percent Effect value was documented for this compound, CCC1CCCCN1Cc1nc2c(cnn2C)c(=O)[nH]1 (stereo not drawn) ?
107.5

What Percent Effect value was documented for this compound, CC(c1nnc(-c2cccs2)o1)N1CCn2c(nnc2C2CC2)C1 (stereo not drawn) ?
-4.966

What Percent Effect value was documented for this compound, `Fc1cccc(N2CCc3ncnc(C4CC4)c3CC2)c1` ?
8.314

What Percent Effect value was documented for this compound, Cc1noc(CCNS(=O)(=O)N2CCCC2c2ccc(C)o2)n1 (stereo not drawn) ?
4.735

What Percent Effect value was documented for this compound, Cc1ccc(C2CCCN2S(=O)(=O)N(C)Cc2cnn(C)c2)o1 (stereo not drawn) ?
13.71

What Percent Effect value was documented for this compound, `CC1(C)CC(N(Cc2cccnc2)Cc2cccnc2)CC(C)(C)N1.O=C(O)CC(O)(CC(=O)O)C(=O)O` ?
81.01

====

- System: Wolbachia pipientis
- Test Description: Anti-Wolbachia Cell-Based Screen
- Assay type: functional
- Parameters: scale not given: in the data most compounds retested in dose-response had high values
- Condition Notes: 5 µM
Out of some 48,000 compounds screened, about 13,000 (27%) showed an effect of 50% or more. The list shows a part of the results.
Catalogue of compounds with associated Percent Effect
Answer format: numeric, % implied, no suffix.

What Percent Effect value was documented for this compound, c1ccc(Cn2cccn2)c(CN2CCCCC2CCn2ccnc2)c1 (stereo unspecified) ?
-5.854

What Percent Effect value was documented for this compound, CN1CCN(Cc2noc(CC3CCc4ccccc43)n2)CC1 (stereo unspecified) ?
3.539

What Percent Effect value was documented for this compound, `Cc1ccsc1[C@@H]1CCN(C(=O)c2ccc(-c3cc[nH]n3)cc2)C[C@H]1O` ?
-2.8

What Percent Effect value was documented for this compound, COCCN(C)Cc1cc(Cl)ccc1OCC(O)CN1CCCCCC1 (stereo unspecified) ?
95.86

What Percent Effect value was documented for this compound, CCN1CCN(CC(O)c2cc(Cl)ccc2Cl)CC1 (stereo unspecified) ?
-3.784

What Percent Effect value was documented for this compound, CCOCC(O)CN1CCN(C(=O)c2ccnc(N(C)C)c2)CC1 (stereo unspecified) ?
-11.71

What Percent Effect value was documented for this compound, `CC(C)CN1C(=O)COC[C@@H]1[C@H](O)c1ccc(NC(=O)C2CC2)cc1` ?
-2.654

What Percent Effect value was documented for this compound, `COCC(=O)N[C@H]1C[C@H]2C(=O)NC[C@@H](CCC(=O)NC3CC3)N2C1` ?
-1.651

What Percent Effect value was documented for this compound, CCOc1ccc(Cl)cc1C(C(=O)O)N1CCCC1 (stereo unspecified) ?
-26.77

What Percent Effect value was documented for this compound, CN(CCCO)Cc1cc(Cl)ccc1OCC(O)CN1CCCCCC1 (stereo unspecified) ?
86.94

What Percent Effect value was documented for this compound, CC(Cn1cccn1)NC(=O)NCc1ccc(C(N)=O)cc1 (stereo unspecified) ?
167.3

Reference source for all entries: ChEMBL document CHEMBL3988442
